test system: osteoblastic cells derived from murine calvaria; assay: Etoposide-induced apoptosis of osteoblastic cells, trypan blue uptake; assay type: cell-based; conditions: suppression of the anti-apoptotic effect by androgen receptor antagonist

[
  {
    "Compound": "C[C@]12CC[C@H](OS(=O)(=O)O)CC1=CC[C@@H]1[C@@H]2CC[C@]2(C)C(=O)CC[C@@H]12 [Dehydroisoandrosterone-3-sulfate (DHES), Dehydroisoandrosterone-3-sulfate]",
    "Suppression by 10^−8 M Flutamide": "no*"
  },
  {
    "Compound": "C[C@]12CCC(=O)C=C1CC[C@@H]1[C@@H]2CC[C@]2(C)C(=O)CC[C@@H]12",
    "Suppression by 10^−8 M Flutamide": "yes"
  },
  {
    "Compound": "C[C@]12CC[C@H]3[C@@H](CCC4=CC(=O)CC[C@@]43C)[C@@H]1CC[C@@H]2O",
    "Suppression by 10^−8 M Flutamide": "yes"
  }
]
